Molecular target: human TG2 (Homo sapiens)
Recorded measurements of IC50, one per entry

query: # query: IC50 of entry C=CC(=O)Nc1ccc(S(=O)(=O)N(C)Cc2cccc(CN3CCCC3)c2)cc1
result: 1 to 25 µM

* * *

Sequence of the target: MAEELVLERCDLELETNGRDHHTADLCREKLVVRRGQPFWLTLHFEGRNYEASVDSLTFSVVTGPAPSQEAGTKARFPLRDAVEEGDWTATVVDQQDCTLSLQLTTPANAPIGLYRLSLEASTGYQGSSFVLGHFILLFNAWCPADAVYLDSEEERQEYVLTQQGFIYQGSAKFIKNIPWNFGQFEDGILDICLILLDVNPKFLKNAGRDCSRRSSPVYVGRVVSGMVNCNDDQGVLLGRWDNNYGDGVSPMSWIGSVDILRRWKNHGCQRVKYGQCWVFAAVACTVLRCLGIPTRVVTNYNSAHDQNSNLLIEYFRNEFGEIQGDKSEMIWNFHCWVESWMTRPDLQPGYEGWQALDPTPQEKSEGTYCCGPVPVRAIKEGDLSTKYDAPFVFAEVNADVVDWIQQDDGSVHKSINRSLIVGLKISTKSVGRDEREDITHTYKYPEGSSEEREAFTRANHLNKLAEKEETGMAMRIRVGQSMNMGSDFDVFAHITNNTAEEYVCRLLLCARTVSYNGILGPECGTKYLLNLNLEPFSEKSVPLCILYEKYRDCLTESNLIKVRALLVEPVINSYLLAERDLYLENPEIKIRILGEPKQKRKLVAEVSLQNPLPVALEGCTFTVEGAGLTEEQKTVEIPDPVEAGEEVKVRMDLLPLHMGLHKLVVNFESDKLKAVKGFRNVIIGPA
Endpoint: IC50

C=CC(=O)Nc1cccc(S(=O)(=O)N2CCN(CCCCc3ccccc3)CC2)c1 ... 1 to 25 µM
C=CC(=O)Nc1ccc(S(=O)(=O)N(Cc2ccccc2)Cc2ccc(Cl)cc2)cc1 ... 1 to 25 µM
C=CC(=O)Nc1cccc(S(=O)(=O)N2CCN(c3ccccc3)CC2)c1 ... 1 to 25 µM

query: # query: IC50 of entry C=CC(=O)Nc1ccc(S(=O)(=O)N2CCN(Cc3ccc(-c4ccccc4)cc3)CC2)cc1
result: 1 to 25 µM

query: # query: IC50 of entry C=CC(=O)Nc1ccc(S(=O)(=O)N2CCN(c3ccc4ccccc4c3)CC2)cc1
result: 1 to 25 µM
